Biological target: IL-2 (C013, Novoprotein) (UniProt P60568 21-153)
Sequence (P60568 21-153 limits assumed): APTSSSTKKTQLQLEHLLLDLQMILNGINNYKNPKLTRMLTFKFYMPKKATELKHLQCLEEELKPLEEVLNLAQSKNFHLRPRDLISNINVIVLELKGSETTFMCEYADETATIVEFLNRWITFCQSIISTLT
Experiment: SPR (Biacore T200), antibody captured on Protein A chip, IL-2 analyte, 1:1 model
# kon listing for each entry below
# output: bare number, implied unit M⁻¹ s⁻¹

Here's what some known entries look like.
BINDER	UOM	kon
D3-68 full-length fully human anti-IL-2 antibody (antibody, human IgG1, kappa, L234A L235A, V domains shown, Human IgG1 with LALA mutation, kappa light chain) VH: QVQLVQSGPEVKKPGASVKVSCKASGYTFTSYGISWVRRAPGQGLEWMGWISAYNGNTNYAQKLQGRVTMTTDTSTSTAYMELRSLRSDDTAVYYCARDLQSPTYYYGSGVIDYWGQGTLVTVSS VL: DIQLTQSPSTLSASVGDRVTISCRASRAVSPWLAWYQHRPGQAPKLLIYAASSLQSGVPSRFSGSGSGTDFTLTISSLQPEDFATYYCQQYRSYPFTFGPGTTVDIRR	M⁻¹ s⁻¹	1.16e+07
C2-53 full-length fully human anti-IL-2 antibody (antibody, human IgG1, kappa, L234A L235A, V domains shown, Human IgG1 with LALA mutation, kappa light chain) VH: EVQLVESGGGLVQPGRSLILSCAASGFTFDDYAMHWVRQAPGKGLEWVSGISWNSGSIGYADSVKGRFTISRDNAKNSLYLQMNSLRAEDTALYYCAKDQLRWGTYYYYGMDVWGQGTTVTVSS VL: DIQMTQSPSTLSASVGDRVTITCRASQSVSIWVAWYQQKPGKAPKLLIYKASSLERGVPTRFSGSGSGTEFTLTISSLQPEDFATYHCQQYDTGATFGQGTKVEMKR	M⁻¹ s⁻¹	1.64e+07
D2-60 full-length fully human anti-IL-2 antibody (antibody, human IgG1, kappa, L234A L235A, V domains shown, Human IgG1 with LALA mutation, kappa light chain) VH: QVQLVQSGAEVKKPGASVKVSCKASGYTFTSYGISWVRQAPGQGLEWMGWISAYNGNTNYAQKLQGRVTMTTDTSTSTAYMELRSLRSDDTAVYYCAREYSSWYSGGMDVWGQGTTVTVSS VL: DIQMTQSPSSLSASVGDRVTITCRASQGISNYLAWYQQKPGKVPKLLIYAASTLQSGVPSRFSGSGSGTDFTLTISSLQPEDVATYYCQKYDSAPFTFGQGTRLEIKR	M⁻¹ s⁻¹	509000

Pending binder:
Indicate its recorded kon; the binder in question is A2-22 full-length fully human anti-IL-2 antibody (antibody, human IgG1, kappa, L234A L235A, V domains shown, Human IgG1 with L234A/L235A (LALA), kappa light chain; expressed in HEK293) VH: QVQLVQSGAEVKKPGASVKVSCKASGYTFTSYYMHWVRQAPGQGLEWMGIINPSGGSTSYAQKFQGRVTMTRDTSTSTVYMELSSLRSEDTAVYYCAREDWMEYEYYYGMDVWGQGTLVTVSS VL: EIVLTQSPGTLSLSPGERATLSCRASQSVSNNYLAWYQQKPGQAPRLLIYGASSRATGIPDRFSGSGSGTDFTLTISRLEPEDFAVYSCQQYGSSPLTFGQGTRLEIKR
1.33e+06
